Where these numbers come from: patent US20220339143A1

experiment: Single dose PK in healthy subjects (Cohorts 1, 2, S1 and S2), plasma; type: in vivo, human; conditions: human, plasma, iv, 240 mg, 240 mg single IV infusion; 6 hr After End of Infusions; read-out: Plasma Concentration of Cmpd A, Maximum
Excerpt: […]
property measured: concentration at 6 h after end of infusion (ng/mL)
Give just the numeric value; ng/mL need not be written.

Look up concentration at 6 h after end of infusion for this compound: COC(=O)N1CCC[C@H](NS(C)(=O)=O)[C@@H]1CO[C@H]1CC[C@@H](c2ccccc2)CC1
38.2

* * *

test: Single dose PK in healthy subjects (Cohorts 1, 2, S1 and S2), plasma; assay type: in vivo, human; conditions: human, plasma, intravenous, 56 mg; 3 hr; read-out: Plasma concentration, Q1
property measured: concentration at 3 h

Look up concentration at 3 h for this molecule: COC(=O)N1CCC[C@H](NS(C)(=O)=O)[C@@H]1CO[C@H]1CC[C@@H](c2ccccc2)CC1
98.6 ng/mL

* * *

assay: Single dose PK in healthy subjects (Cohorts 1, 2, S1 and S2), plasma; type: in vivo, human; conditions: human, plasma, intravenous, 112 mg; 1 hr; read-out: Plasma concentration, Q1
property measured: concentration at 1 h (ng/mL)
Give just the numeric value; ng/mL need not be written.

Look up concentration at 1 h for this compound: COC(=O)N1CCC[C@H](NS(C)(=O)=O)[C@@H]1CO[C@H]1CC[C@@H](c2ccccc2)CC1 [Compound A]
131

* * *

experiment: Plasma concentrations in healthy subjects (Cohort 4); type: in vivo; settings: human, intravenous, 112 mg, 4 hr, Median
property measured: concentration at 4 h (ng/mL)
Give just the numeric value; ng/mL need not be written.

Look up concentration at 4 h for this compound: COC(=O)N1CCC[C@H](NS(C)(=O)=O)[C@@H]1CO[C@H]1CC[C@@H](c2ccccc2)CC1
224

* * *

experiment: Single dose PK in healthy subjects (Cohorts 1, 2, S1 and S2), plasma; assay type: in vivo, human; settings: human, plasma, intravenous, 7 mg; 9 hr; read-out: Plasma concentration, Q1
property measured: concentration at 9 hr

Look up concentration at 9 hr for this compound: COC(=O)N1CCC[C@H](NS(C)(=O)=O)[C@@H]1CO[C@H]1CC[C@@H](c2ccccc2)CC1 [Compound A]
13.2 ng/mL

* * *

assay: Single dose PK in healthy subjects (Cohorts 1, 2, S1 and S2), plasma; type: in vivo, human; conditions: human, plasma, intravenous, 7 mg; 1 hr; read-out: Plasma concentration, Median
property measured: concentration at 1 h (ng/mL)
Give just the numeric value; ng/mL need not be written.

Look up concentration at 1 h for this compound: COC(=O)N1CCC[C@H](NS(C)(=O)=O)[C@@H]1CO[C@H]1CC[C@@H](c2ccccc2)CC1
11.9
